- tested.target: AR (Homo sapiens, UniProt P10275, T878A)
- Construct: LNCaP cells with endogenous AR; endogenous in cells; host or cells: LNCaP
- Sequence (P10275 whole entry T878A): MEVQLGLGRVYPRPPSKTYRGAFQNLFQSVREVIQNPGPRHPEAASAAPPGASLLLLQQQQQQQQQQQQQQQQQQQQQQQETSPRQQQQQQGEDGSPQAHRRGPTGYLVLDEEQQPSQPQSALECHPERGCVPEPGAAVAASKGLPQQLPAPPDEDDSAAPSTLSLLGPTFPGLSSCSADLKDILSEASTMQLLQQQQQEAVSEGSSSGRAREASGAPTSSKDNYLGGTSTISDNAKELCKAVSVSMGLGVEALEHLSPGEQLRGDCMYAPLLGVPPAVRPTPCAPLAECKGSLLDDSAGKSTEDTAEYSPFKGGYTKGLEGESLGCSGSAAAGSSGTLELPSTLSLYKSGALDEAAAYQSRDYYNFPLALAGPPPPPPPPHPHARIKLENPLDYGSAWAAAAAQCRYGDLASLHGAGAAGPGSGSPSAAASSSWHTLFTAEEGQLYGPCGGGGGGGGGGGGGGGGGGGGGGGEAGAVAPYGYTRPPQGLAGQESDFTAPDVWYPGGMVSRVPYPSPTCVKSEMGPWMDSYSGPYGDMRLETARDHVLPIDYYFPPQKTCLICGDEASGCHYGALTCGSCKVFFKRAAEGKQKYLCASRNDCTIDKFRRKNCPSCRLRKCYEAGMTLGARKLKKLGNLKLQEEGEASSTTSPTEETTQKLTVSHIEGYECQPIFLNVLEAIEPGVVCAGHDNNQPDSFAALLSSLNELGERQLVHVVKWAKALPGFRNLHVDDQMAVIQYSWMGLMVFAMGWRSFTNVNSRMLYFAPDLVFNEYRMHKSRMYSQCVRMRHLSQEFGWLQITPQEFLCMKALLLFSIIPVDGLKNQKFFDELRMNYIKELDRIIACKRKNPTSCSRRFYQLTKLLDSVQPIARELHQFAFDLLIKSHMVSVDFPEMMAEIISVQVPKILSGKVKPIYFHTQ
- procedure.text: PSA(6.1 kb)-luciferase reporter assay in LNCaP cells (androgen-induced AR transcriptional activity)
- Format: cell-based
- experimental.context: LNCaP, PSA(6.1 kb)-luciferase, 1 h pre-treatment, R1881 1 nM 24 h; Trial 3; read-out: IC50 Trial 3
property.measured: IC50 (nM)
Give just the number in nM; leave the unit off.

// solved cases for IC50 follow
[[record]]
compound = "CC(C)(c1ccc(OC[C@H](O)CO)cc1)c1ccc(OC[C@H](O)CCl)c(F)c1 [Compound 11d]"
measurement_unit = "nM"
recorded_result = 7330

[[record]]
compound = "CC(C)(c1ccc(OC[C@H](O)CO)cc1)c1ccc(OC[C@H](O)CCl)c(Br)c1"
measurement_unit = "nM"
recorded_result = 2960


Turning now to a further record.
Log: AR (Homo sapiens, UniProt P10275, T878A), compound CC(C)(c1ccc(OC[C@H](O)CO)cc1)c1ccc(OC[C@H](O)CCl)c(Cl)c1 [Compound 10d] , IC50 = 2810

* * *

- tested.target: AR (Homo sapiens, UniProt P10275, T878A)
- Construct: LNCaP cells with endogenous AR; endogenous in cells; host or cells: LNCaP
- procedure.text: PSA(6.1 kb)-luciferase reporter assay in LNCaP cells (androgen-induced AR transcriptional activity)
- Format: cell-based
- experimental.context: LNCaP, PSA(6.1 kb)-luciferase, 1 h pre-treatment, R1881 1 nM 24 h; average of 4 trials; read-out: IC50 Average
property.measured: IC50 (nM)
# number only, unit nM dropped from output

Reference set, count: 2
[[record]]
compound = "CC(C)(c1ccc(OC[C@H](O)CO)cc1)c1ccc(OC[C@H](O)CCl)c(Br)c1 [Compound 9d]"
recorded_result = 2780

[[record]]
compound = "CC(C)(c1ccc(OC[C@H](O)CO)cc1)c1ccc(OC[C@H](O)CCl)c(F)c1 [Compound 11d]"
recorded_result = 5570


Now consider the entry below.
Note to self: IC50 recorded for CC(C)(c1ccc(OC[C@H](O)CO)cc1)c1ccc(OC[C@H](O)CCl)c(Cl)c1 [Compound 10d] was 2620

* * *

- tested.target: AR (Homo sapiens, UniProt P10275, T878A)
- Construct: LNCaP cells with endogenous AR; endogenous in cells; host or cells: LNCaP
- procedure.text: PSA(6.1 kb)-luciferase reporter assay in LNCaP cells (androgen-induced AR transcriptional activity)
- Type: cell-based
- experimental.context: LNCaP, PSA(6.1 kb)-luciferase, 1 h pre-treatment, R1881 1 nM 24 h; Trial 2; read-out: IC50 Trial 2
property.measured: IC50 (µM)
Field format: number, assumed µM, no unit text.

Value of measured IC50 for the entry CC(C)(c1ccc(OC[C@H](O)CO)cc1)c1ccc(OC[C@H](O)CCl)c(F)c1 [Compound 11d] : 3.6

Form: compound = CC(C)(c1ccc(OC[C@H](O)CO)cc1)c1ccc(OC[C@H](O)CCl)c(Cl)c1 [Compound 10d] ; IC50 = 2.3

For CC(C)(c1ccc(OC[C@H](O)CO)cc1)c1ccc(OC[C@H](O)CCl)c(Br)c1 the compound record lists IC50 as 2.74

* * *

- tested.target: AR (Homo sapiens, UniProt P10275, T878A)
- Construct: LNCaP cells with endogenous AR; endogenous in cells; host or cells: LNCaP
- procedure.text: PSA(6.1 kb)-luciferase reporter assay in LNCaP cells (androgen-induced AR transcriptional activity)
- Assay type: cell-based
- experimental.context: LNCaP cells, PSA(6.1 kb)-luciferase, R1881 1 nM 24 h; representative experiment; read-out: IC50 for inhibition of AR transcriptional activity
property.measured: pIC50
# pIC50 = -log10(concentration in molar units)

Reported AR (Homo sapiens, UniProt P10275, T878A) pIC50 for item CC(C)(c1ccc(OC[C@H](O)CO)cc1)c1ccc(OC[C@H](O)CCl)c(I)c1 was 5.93
